The values you see were collected from ChEMBL document CHEMBL5370602.

Reported Ki values follow for various compounds
Target: Oxysterol-binding protein 1 (Homo sapiens, UniProt P22059)
Sequence (P22059 whole entry): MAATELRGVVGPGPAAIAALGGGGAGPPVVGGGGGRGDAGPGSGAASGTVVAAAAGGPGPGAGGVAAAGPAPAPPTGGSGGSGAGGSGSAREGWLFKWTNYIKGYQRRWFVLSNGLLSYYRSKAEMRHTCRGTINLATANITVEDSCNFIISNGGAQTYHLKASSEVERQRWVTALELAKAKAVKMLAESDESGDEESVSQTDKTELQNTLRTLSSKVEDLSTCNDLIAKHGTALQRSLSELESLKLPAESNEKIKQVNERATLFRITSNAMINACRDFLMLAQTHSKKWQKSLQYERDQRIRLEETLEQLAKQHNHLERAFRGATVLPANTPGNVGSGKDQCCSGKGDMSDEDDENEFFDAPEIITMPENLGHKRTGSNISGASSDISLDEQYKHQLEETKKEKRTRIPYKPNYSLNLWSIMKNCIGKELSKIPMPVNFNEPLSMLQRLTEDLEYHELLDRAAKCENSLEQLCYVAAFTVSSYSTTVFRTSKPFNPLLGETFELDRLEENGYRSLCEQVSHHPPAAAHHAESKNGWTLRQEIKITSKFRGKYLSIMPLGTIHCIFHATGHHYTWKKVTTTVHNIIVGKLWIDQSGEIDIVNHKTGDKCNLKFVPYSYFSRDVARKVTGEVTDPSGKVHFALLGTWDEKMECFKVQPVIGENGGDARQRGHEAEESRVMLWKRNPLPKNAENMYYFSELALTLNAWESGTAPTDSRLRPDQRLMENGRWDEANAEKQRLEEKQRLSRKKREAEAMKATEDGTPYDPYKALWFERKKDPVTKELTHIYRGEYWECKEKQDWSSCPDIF
Dear colleague, please return just the value in nM, with no unit written.

| SMI | MEASURED PARAMETER | QUANTITATIVE RESULT |
| --- | --- | --- |
| COc1cc(CCc2cc(O)c3c(c2)OC(C)(C)CC3)cc2c1O[C@]1(C)CC[C@@H](OC=O)C(C)(C)[C@H]1C2 | Ki | 3700 |
| COc1cc(/C=C/c2cc(O)c3c(c2)OC(C)(C)CC3)cc2c1O[C@]1(C)CC[C@@H](O)C(C)(C)[C@H]1C2 | Ki | 64 |

Kindly consider the entry below.
Q: Provide Ki, recorded with Oxysterol-binding protein 1 (Homo sapiens, UniProt P22059), of COc1cc(/C=C/c2cc(O)c(CC=C(C)C)c(O)c2)cc2c1O[C@]1(C)CC[C@@H](O)C(C)(C)[C@H]1C2
Ans: 6
